Values were extracted from patent US7851493B2.

measured-target: human PPARdelta (Homo sapiens, UniProt Q03181)
Construct: amino acids S139-Y441; plasmid pcDNA3
Sequence (Q03181 139-441): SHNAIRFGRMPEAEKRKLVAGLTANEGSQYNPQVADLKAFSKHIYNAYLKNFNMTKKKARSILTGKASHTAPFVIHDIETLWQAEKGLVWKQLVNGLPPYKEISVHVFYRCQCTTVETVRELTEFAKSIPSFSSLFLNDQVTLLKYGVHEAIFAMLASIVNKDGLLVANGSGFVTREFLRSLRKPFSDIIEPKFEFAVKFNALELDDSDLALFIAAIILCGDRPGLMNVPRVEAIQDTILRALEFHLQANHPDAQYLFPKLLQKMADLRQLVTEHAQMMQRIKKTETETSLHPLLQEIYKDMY
assay-comment: Cellular PPARdelta assay (human GAL4 luciferase reporter, stably transfected HEK cell line)
measured-quantity: EC50 (nM)

Check out these entries, answers already filled in.
CN(CCO)Cc1nc(-c2ccc(C(F)(F)F)cc2)sc1COc1ccc(-c2noc(=O)[nH]2)c(F)c1 ... 171
CC(=O)OCc1nc(-c2ccc(C(F)(F)F)cc2)sc1COc1ccc(-c2noc(=O)[nH]2)c(F)c1 ... 299

P: Cc1cc(OCc2sc(-c3ccc(C(F)(F)F)cc3)nc2CNCCN2CCOCC2)ccc1-c1noc(=O)[nH]1
Q: CCCCc1nc(-c2ccc(C(F)(F)F)cc2)sc1COc1ccc(-c2noc(=O)[nH]2)c(C)n1
Of P and Q , which shows the smaller EC50 value? Please reply using the label of the selected record.
Q
